# Protocol text: Aqueous solubility measurement
# Type: physicochemical
# Stated conditions: thermodynamic from solid; deionized water, pH = 7.0, at least in duplicate; read-out: Aqueous Solubility IC50
Endpoint label: solubility (mg/mL)

{"Compound": "C=C1C(=O)O[C@H]2[C@H]1CCC(C)=C1CC[C@@](C)(O)[C@@H]12 [MCL, micheliolide, reference compound]", "Val": 0.05}
{"Compound": "COc1cc(C=CC(=O)OCC2=CCCC3(C)OC3C3OC(=O)C(CN(C)C)C3CC2)ccc1O (centres unmarked) [Compound 6]", "Val": 2.5}

P. C=C1C(=O)O[C@H]2[C@H]1CC/C(C)=C/CC[C@@]1(C)O[C@@H]21 [PTL, Parthenolide, reference compound]
Q. COc1cc(/C=C/C(=O)O[C@]2(C)CCC3=C(C)CC[C@@H]4[C@H](OC(=O)[C@H]4CN(C)C)[C@H]32)ccc1O.O=C(O)CC(O)(CC(=O)O)C(=O)O [Compound 5]
Which item exceeds the other in solubility, P or Q ? Lab log: write the label of the selected item as the result. Q
